Reference source for all entries: the EternaBench riboswitch data

tested on: MS2 coat protein; experiment: apparent Kd, MS2 coat protein; higher = weaker binding; RNA-MaP array; FMN 200 µM where present; details: ligand present: flavin mononucleotide; designed as: OFF switch for flavin mononucleotide
Binary classification by apparent Kd, with 50 nM as an inclusive lower bound for Y; all other cases are N.

Below, 4 sequences whose answers are already recorded.
> print(dat)
                              item.sequence         tested.on  label.class
1  CUCUUGGCAGGAUAUGCUUUUUUAGACAUGAGGAUCACCCAUGUGAUGAAUAUUGGGUUCGCAGAAGGGCCUGAAU  MS2 coat protein            N
2  AAGAAGUGAGGAUAUGCUGCUCGUCACUUGCGUGAUGAGUAGCAGAAGGCACAUGAGGAUCACCCAUGUGGAAG  MS2 coat protein            N
3  GGUCGCAAGUAAGGAUAUGCAUAUGAAACAUAUGCAGAAGGUACAUGAGGAUCACCCAUGUUAAUGCAAAGCGAAUAAGCGACC  MS2 coat protein            N
4  GUGGAGUAAGGAUAUACAUGAGGAUCACCCAUGUGAGGGUAUGAGAAGGGAAUGAGAGGUAGAAGGUACGAGGG  MS2 coat protein            Y

q: Is reported apparent Kd greater than or equal to 50 nM here: GGAUGACAAAGUCAUCCCUGACGGACAUGAGGAUCACCCAUGUAGGAUAUGCUACUCAAAGAGUAGCAGAAGGACAUGUGUCUU
a: Y

q: Given the entry GUACUACAUGAGGAUCACCCAUGUCAGGAUAUGUGAAUUUCAUCAAAAGAUGAAAUUCGUAGAAGGGACAGUAC , answer whether its apparent Kd meets or surpasses 50 nM.
a: N

q: I'd appreciate it if you could say whether ACGCUUUGGGAGAAGGUACUUUAAAAUUUUUCCACAUGAGGAUCACCCAUGUAAGGAUAUCCCAUCGUUAAAUAUUCUACAGCA has apparent Kd at least equal to 50 nM.
a: N
